Tested on: CVA16
Test: Viral yield reduction assay, CVA16
Assay type: cell-based, Coxsackievirus A16 (clinical isolate)
Conditions: CVA16, RD cells
Structures can show the parent of a compound that is named as a salt.
Metric name: IC50 (µM)
One number for each entry, in µM.

## Task Endpoint output: IC50 of N=C(N)N [Guanidine hydrochloride, reference compound] . Value?
## Result 337

----------
Assay: in vitro
Conditions: human
Metric name: CC50
Respond with a number, then the unit of measure.

## Task Endpoint output: CC50 of c1ccc(C2=NN(c3nc4ccccc4s3)CN(c3ccccc3)N2)cc1 . Value?
## Result 501 µM

----------
Experiment: in vitro
Details: African green monkey, Vero cells
For each record, write down the corresponding CC50 at 24 h.

1. CCC1N(c2nc3ccccc3s2)N=C(c2ccccc2)NN1c1ccc(OC)cc1 (centres unmarked)
2330 µM
2. CC1N(c2nc3ccccc3s2)N=C(c2ccccc2)NN1c1ccc(F)cc1 (centres unmarked)
49.6 µM
3. CCc1ccc(N2NC(c3ccccc3)=NN(c3nc4ccccc4s3)C2C)cc1 (centres unmarked)
> 303 µM

Each compound below has a reported value. Please supply its CC50 at 24 h.
1. CC1N(c2nc3ccccc3s2)N=C(c2ccccc2)NN1c1ccc(Br)cc1 (centres unmarked)
2. C=CC1N(c2nc3ccccc3s2)N=C(c2ccccc2)NN1c1ccc(I)cc1 (centres unmarked)

## Result
1. 69.1 µM
2. 1530 µM

----------
Tested on: CVA24
Assay: Viral yield reduction assay, CVA24
Assay type: cell-based, Coxsackievirus A24 (clinical isolate)
Settings: Enterovirus C, CVA24, RD cells
Metric name: IC50 (nM)
Numbers only, in nM.

## Task Notebook entry, CVA24 assay: IC50 of c1ccc(C2=NN(c3nc4ccccc4s3)CN(c3ccccc3)N2)cc1 = ?
## Result 900

----------
System: CVB3 WT
Test: microbe, parasite or virus in culture
Format: cell-based, Coxsackievirus B3 (Nancy strain), passaged without 1a
Settings: Enterovirus B, CVB3, Vero
Metric name: IC50 (nM)
One number for each entry, in nM.

## Task Notebook entry, CVB3 WT assay: IC50 of c1ccc(C2=NN(c3nc4ccccc4s3)CN(c3ccccc3)N2)cc1 [Compound 1a] = ?
## Result 480

----------
System: Influenza A/Puerto Rico/8/34
Assay: Viral yield reduction assay, influenza A
Assay type: cell-based, Influenza A virus (strain A/Puerto Rico/8/1934 (H1N1))
Settings: Influenza A virus, Influenza A/Puerto Rico/8/34, MDCK cells
Metric name: pIC50
Answers are plain numbers, as −log10 of the molar value.

## Task Notebook entry, Influenza A/Puerto Rico/8/34 assay: pIC50 of c1ccc(C2=NN(c3nc4ccccc4s3)CN(c3ccccc3)N2)cc1 [Compound 1a] = ?
## Result 4.41

----------
Assay: in vitro
Conditions: African green monkey
Metric name: CC50 (µM)
Give bare numbers, in µM.

## Task Endpoint output: CC50 of c1ccc(C2=NN(c3nc4ccccc4s3)CN(c3ccccc3)N2)cc1 . Value?
## Result 451

----------
Assay: in vitro
Details: African green monkey, Vero cells
For each record, write down the corresponding CC50 at 24 h.

1) C=CC1N(c2nc3ccccc3s2)N=C(c2ccccc2)NN1c1ccccc1 (stereo not shown)
> 315 µM

Each compound below has a reported value. Please supply its CC50 at 24 h.
1. COc1ccc(N2NC(c3ccccc3)=NN(c3nc4ccccc4s3)C2C)cc1 (stereo not shown)
2. COc1ccc(N2CN(c3nc4ccccc4s3)N=C(c3ccccc3)N2)cc1
3. Clc1ccc(N2CN(c3nc4ccccc4s3)N=C(c3ccccc3)N2)cc1

## Result
2050 µM
> 1350 µM
321 µM
